test description: In vivo pharmacokinetic parameters
Design: unit not given here
test settings: plasma; Beagle Dog, po, 5 mg/kg; read-out: Area under the curve AUC
recorded endpoint: AUC

(Q) Give its AUC value. Item: Cc1nc(N2CCC3(CC2)Cc2ccccc2[C@H]3N)n2ccnc2c1Sc1ccnc(N)c1Cl [Example 1]
(A) 18200

---

Below are molecules with their pIC50 as measured on UniProt:P05177.
Sequence (P05177 whole entry): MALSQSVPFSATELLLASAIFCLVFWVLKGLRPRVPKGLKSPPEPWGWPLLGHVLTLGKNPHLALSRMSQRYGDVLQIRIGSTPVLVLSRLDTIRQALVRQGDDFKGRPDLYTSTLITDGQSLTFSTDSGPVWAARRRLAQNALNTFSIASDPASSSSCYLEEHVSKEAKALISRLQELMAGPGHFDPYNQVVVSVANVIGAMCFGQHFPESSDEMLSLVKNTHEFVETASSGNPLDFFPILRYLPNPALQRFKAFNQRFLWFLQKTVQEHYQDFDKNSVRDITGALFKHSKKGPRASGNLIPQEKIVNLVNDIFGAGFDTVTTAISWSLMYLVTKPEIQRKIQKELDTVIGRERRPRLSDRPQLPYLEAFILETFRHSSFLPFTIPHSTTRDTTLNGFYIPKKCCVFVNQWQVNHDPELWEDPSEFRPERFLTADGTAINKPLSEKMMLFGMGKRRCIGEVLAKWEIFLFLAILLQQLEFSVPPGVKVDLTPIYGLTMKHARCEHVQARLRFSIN
pIC50: −log10 of the molar value.

(Q) Give its pIC50 value. Item: "Cc1nc(N2CCC3(CC2)Cc2ccccc2[C@H]3N)n2ccnc2c1Sc1ccnc(N)c1Cl"
(A) < 4.60

(Q) "Nc1nccc(Sc2c(N)nc(N3CCC4(CC3)Cc3ccccc3[C@H]4N)n3ccnc23)c1Cl" ?
(A) < 4.60

---

target system: SHP2 enzyme (Homo sapiens (Human))
Sequence (Q06124 whole entry): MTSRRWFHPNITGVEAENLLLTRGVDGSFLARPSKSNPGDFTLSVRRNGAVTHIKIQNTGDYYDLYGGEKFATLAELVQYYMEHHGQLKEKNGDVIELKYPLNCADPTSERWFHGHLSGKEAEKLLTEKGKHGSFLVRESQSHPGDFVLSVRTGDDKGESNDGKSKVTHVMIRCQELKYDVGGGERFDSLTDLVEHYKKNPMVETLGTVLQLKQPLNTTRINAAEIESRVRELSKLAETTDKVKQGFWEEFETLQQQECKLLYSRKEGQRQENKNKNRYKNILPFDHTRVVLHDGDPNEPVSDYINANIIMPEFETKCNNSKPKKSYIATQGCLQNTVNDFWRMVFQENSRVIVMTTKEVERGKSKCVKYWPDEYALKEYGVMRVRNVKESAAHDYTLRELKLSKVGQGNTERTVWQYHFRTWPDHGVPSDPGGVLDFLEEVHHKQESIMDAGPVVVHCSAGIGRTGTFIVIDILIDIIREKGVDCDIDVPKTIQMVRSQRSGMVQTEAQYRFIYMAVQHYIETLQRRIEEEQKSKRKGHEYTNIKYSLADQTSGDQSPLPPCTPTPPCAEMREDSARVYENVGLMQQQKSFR
test description: Inhibitory activity against SHP2 enzyme (Caliper conversion rate)
Type: biochemical
test settings: read-out: SHP2 Enzyme Inhibition IC50 Value
Exercise: state measured IC50 for each of the compounds provided.
Give the number first and the unit second.

(Q) Give its IC50 value. Item: Cc1nc(N2CCC3(CCC[C@H]3N)CC2)n2ccnc2c1Sc1ccnc(N)c1Cl [Example 26]
(A) 6.1 nM

(Q) CC1(N)CCN(c2ncc(-c3cccc(Cl)c3Cl)c3nccn23)CC1 [Comparative Compound 2, reference compound] ?
(A) 3460 nM

(Q) Cc1nc(N2CCC3(CC2)Cc2ccccc2C3N)n2ccnc2c1Sc1ccnc(N)c1Cl (stereo not shown) [Example 20] ?
(A) 3.8 nM

(Q) Nc1nc(N2CCC3(CC2)Cc2ccccc2[C@H]3N)n2ccnc2c1Sc1cccnc1C(F)(F)F [Example 5] ?
(A) 0.8 nM
